Molecular target: VEGFR2 kinase (Homo sapiens, UniProt P35968)
Construct: recombinant N-terminal 6×His-tagged VEGFR2 kinase domain construct expressed by baculovirus; 6xHis (N); made in house
Sequence (P35968 834-1162 limits assumed): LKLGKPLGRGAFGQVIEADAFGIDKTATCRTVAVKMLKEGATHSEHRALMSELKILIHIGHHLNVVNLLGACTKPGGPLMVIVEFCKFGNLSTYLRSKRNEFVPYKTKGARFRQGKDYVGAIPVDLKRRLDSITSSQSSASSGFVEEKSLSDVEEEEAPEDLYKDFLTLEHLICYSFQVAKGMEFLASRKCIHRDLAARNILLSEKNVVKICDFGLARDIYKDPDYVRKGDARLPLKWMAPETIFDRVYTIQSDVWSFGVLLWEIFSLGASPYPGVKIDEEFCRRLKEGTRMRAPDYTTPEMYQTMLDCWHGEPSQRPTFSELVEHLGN
Experiment: VEGFR2 kinase assay (33P incorporation into Poly(Glu-Tyr))
Type: biochemical
Details: 500 nM test compound; read-out: Inhibition at 500 nM (%) VEGFr-2
quantity.kind: inhibition at 0.5 µM (%)

Worked cases, answers included:
- O=C(O)CCc1c(/C=C2\C(=O)Nc3ccc(NC(=O)c4ccc(F)cc4)cc32)[nH]c2c1C(=O)CCC2: 59.8
- O=C(O)CCc1c(/C=C2\C(=O)Nc3ccc(S(=O)(=O)Cc4c(Cl)cccc4Cl)cc32)[nH]c2c1C(=O)CCC2: 71.3
- O=C(O)CCc1c(/C=C2\C(=O)Nc3ccc(-c4cc5ccccc5s4)cc32)[nH]c2c1C(=O)CCC2: 45.5
- CCOC(=O)CCc1c(C=C2C(=S)Nc3ccccc32)[nH]c2c1C(=O)CCC2: 23.3

A: CCOC(=O)CCc1c(/C=C2\C(=O)Nc3ccc(NC(=O)c4ccc(F)cc4)cc32)[nH]c2c1C(=O)CCC2
B: O=C(O)CCc1c(/C=C2\C(=O)Nc3ccc(NC(=O)c4ccc([N+](=O)[O-])cc4)cc32)[nH]c2c1C(=O)CCC2
C: CC(=O)Nc1ccc2c(c1)/C(=C/c1[nH]c3c(c1CCC(=O)O)C(=O)CCC3)C(=O)N2
D: O=C(O)CCc1c(C=C2C(=S)Nc3ccccc32)[nH]c2c1C(=O)CCC2
Query: Endpoint returns the given compounds ordered by ascending inhibition at 0.5 µM. Present the labels in the sequence the task asks for.
Response: D, A, B, C
